Reference for the values: patent US20210220432A1

Biological target: HPV-16 L1 protein (Human papillomavirus type 16, UniProt P03101)
Construct: purchased Abcam ab119880
Sequence (P03101 whole entry): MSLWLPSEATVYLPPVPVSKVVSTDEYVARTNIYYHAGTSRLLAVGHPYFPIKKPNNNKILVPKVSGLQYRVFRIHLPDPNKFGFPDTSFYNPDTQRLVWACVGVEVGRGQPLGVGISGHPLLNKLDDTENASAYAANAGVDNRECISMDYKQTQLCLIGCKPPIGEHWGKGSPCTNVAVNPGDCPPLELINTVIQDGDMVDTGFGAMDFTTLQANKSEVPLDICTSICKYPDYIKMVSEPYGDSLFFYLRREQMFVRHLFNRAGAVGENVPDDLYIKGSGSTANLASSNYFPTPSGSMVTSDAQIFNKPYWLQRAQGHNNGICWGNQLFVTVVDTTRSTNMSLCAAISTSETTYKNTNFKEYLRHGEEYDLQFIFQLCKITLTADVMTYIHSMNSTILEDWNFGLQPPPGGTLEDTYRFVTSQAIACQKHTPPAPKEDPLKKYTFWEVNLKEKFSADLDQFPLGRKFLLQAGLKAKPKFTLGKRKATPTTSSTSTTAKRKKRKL
Assay: Biomolecular interaction analysis (SPR, Biacore 3000) of the polypeptide with HPV-16 L1 protein
Type: binding
Settings: KD, Affinity constant, SPR, kinetic analysis, HPV-16 L1 protein
No end group written: not given here.
metric.name: Kd (nM)
# output: bare number, implied unit nM

## Input Value wanted: Kd (HPV-16 L1 protein (Human papillomavirus type 16, UniProt P03101)) of entry MGRFKRFRKKFKKLFKKLS [The polypeptide]
## Output 0.782
